# collection of pIC50 values tested on human cathepsin S (Homo sapiens)
# Sequence (P25774 115-331): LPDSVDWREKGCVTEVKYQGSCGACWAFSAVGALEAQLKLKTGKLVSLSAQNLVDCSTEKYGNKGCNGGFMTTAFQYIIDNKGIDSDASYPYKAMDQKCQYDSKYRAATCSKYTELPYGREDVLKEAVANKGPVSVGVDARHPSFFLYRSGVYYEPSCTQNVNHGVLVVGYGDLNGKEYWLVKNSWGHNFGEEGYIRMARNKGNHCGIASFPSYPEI
When answering, recall that pIC50 equals minus log10 of the concentration in mol/L, and write that number alone.

Worked cases, pIC50 given:
N#CC1(NC(=O)C2(NC(=O)c3cc4ccc(-c5ccc(C(O)C(F)F)cc5)cc4o3)CCCCC2)CC1 (stereo not shown); 5.68
CS(=O)(=O)c1ccc(-c2ccc3cc(C(=O)NC4(C(=O)NC5(C#N)CC5)CCCCC4)oc3c2)c(F)c1; 5.80
Cc1cc(-c2ccc3cc(C(=O)NC4(C(=O)NC5(C#N)CC5)CCC(F)(F)CC4)oc3c2)ccc1-n1cncn1; 5.87
N#CC1(NC(=O)C2(NC(=O)c3cc4ccc(-c5ccc(-n6ccnn6)cc5)cc4o3)CCC(F)(F)CC2)CC1; 5.55
N#CC1(NC(=O)C2(NC(=O)c3cc4ccc(-c5csc(N6CCOC6=O)n5)cc4o3)CCCCC2)CC1; 5.39

INPUT: Enter pIC50 (test system human cathepsin S (Homo sapiens)) for N#CC1(NC(=O)C2(NC(=O)c3cc4ccc(-c5ccc(C6(O)CCS(=O)(=O)CC6)cc5)cc4o3)CCC(F)(F)CC2)CC1
OUTPUT: 6.40

INPUT: Enter pIC50 (test system human cathepsin S (Homo sapiens)) for N#CC1(NC(=O)C2(NC(=O)c3cc4ccc(-c5csc(C6(O)COC6)n5)cc4o3)CCCCC2)CC1
OUTPUT: 5.68

---

- assayComment: Pharmacokinetic test in SD rats (iv and oral gavage), plasma by LC/MS/MS
- Type: in vivo
- protocolConditions: rat, male SD rats, iv 1 mg/kg, read-out: T1/2 h (converted)
measuredEndpoint: half-life (h)
Give just the number in h; leave the unit off.

Worked cases, half-life given:
N#CC1(NC(=O)C2(NC(=O)c3cc4ccc(-c5ccc(-n6cncn6)cc5)cc4o3)CCC(F)(F)CC2)CC1; 7.84
CCOc1cc(-c2ccc3cc(C(=O)NC4(C(=O)NC5(C#N)CC5)CCC(F)(F)CC4)oc3c2)ccc1-n1cncn1; 5.59

INPUT: Output measured half-life for this item: N#CC1(NC(=O)C2(NC(=O)c3cc4ccc(-c5ccc(-n6cncn6)c(OC(F)F)c5)cc4o3)CCC(F)(F)CC2)CC1
OUTPUT: 5.9

---

- assayComment: Pharmacokinetic test in SD rats (iv and oral gavage), plasma by LC/MS/MS
- Assay type: in vivo
- protocolConditions: rat, male SD rats, iv 1 mg/kg
measuredEndpoint: Cmax (ng/mL)
Give just the number in ng/mL; leave the unit off.

Worked cases, Cmax given:
CCOc1cc(-c2ccc3cc(C(=O)NC4(C(=O)NC5(C#N)CC5)CCC(F)(F)CC4)oc3c2)ccc1-n1cncn1; 1240
N#CC1(NC(=O)C2(NC(=O)c3cc4ccc(-c5ccc(-n6ccnn6)cc5)cc4o3)CCC(F)(F)CC2)CC1; 500

INPUT: Output measured Cmax for this item: N#CC1(NC(=O)C2(NC(=O)c3cc4ccc(-c5ccc(-n6cncn6)c(OC(F)F)c5)cc4o3)CCC(F)(F)CC2)CC1
OUTPUT: 798

---

# collection of IC50 values tested on human cathepsin K (Homo sapiens, UniProt P43235)
# Sequence (P43235 115-329): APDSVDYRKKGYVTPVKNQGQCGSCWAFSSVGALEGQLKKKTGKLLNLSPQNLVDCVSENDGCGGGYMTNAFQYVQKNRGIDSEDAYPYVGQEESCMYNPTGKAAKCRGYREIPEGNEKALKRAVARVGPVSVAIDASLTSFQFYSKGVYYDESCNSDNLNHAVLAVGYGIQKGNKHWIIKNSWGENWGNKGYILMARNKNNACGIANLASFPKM
Give just the number in nM; leave the unit off.

N#CC1(NC(=O)C2(NC(=O)c3cc4ccc(-c5ccc(N6CCOCC6=O)cc5)cc4o3)CCC(F)(F)CC2)CC1; 1.2
N#CC1(NC(=O)C2(NC(=O)c3cc4ccc(-c5ccc(C(O)C6(O)CC6)cc5)cc4o3)CCC(F)(F)CC2)CC1 (stereo not drawn); 3.1
CS(=O)(=O)Nc1ccc(-c2ccc3cc(C(=O)NC4(C(=O)NC5(C#N)CC5)CCC(F)(F)CC4)oc3c2)cc1; 0.53
N#CC1(NC(=O)C2(NC(=O)c3cc4ccc(-c5ccc6c(c5)OCCO6)cc4o3)CCC(F)(F)CC2)CC1; 2.95
N#CC1(NC(=O)C2(NC(=O)c3cc4ccc(-c5ccc(C6(F)CCS(=O)(=O)CC6)cc5)cc4o3)CCCCC2)CC1; 2.2
N#CC1(NC(=O)C2(NC(=O)c3cc4ccc(-c5ccc(C6(O)CCS(=O)(=O)CC6)cc5)cc4o3)CCC(F)(F)CC2)CC1; 0.83
COc1cc(-c2ccc3cc(C(=O)NC4(C(=O)NC5(C#N)CC5)CCC(F)(F)CC4)oc3c2)ccc1OCS(C)(=O)=O; 0.88
N#CC1(NC(=O)C2(NC(=O)c3cc4ccc(-c5ccc(OC6COC6)cc5)cc4o3)CCC(F)(F)CC2)CC1; 2

Here is the next item to consider.
INPUT: Output measured IC50 for this item: COc1cc(-c2ccc3cc(C(=O)NC4(C(=O)NC5(C#N)CC5)CCC(F)(F)CC4)oc3c2)ccc1OCC(C)(C)O
OUTPUT: 2.35
